- test.target: RON (Homo sapiens)
- Sequence (Q04912 913-1400): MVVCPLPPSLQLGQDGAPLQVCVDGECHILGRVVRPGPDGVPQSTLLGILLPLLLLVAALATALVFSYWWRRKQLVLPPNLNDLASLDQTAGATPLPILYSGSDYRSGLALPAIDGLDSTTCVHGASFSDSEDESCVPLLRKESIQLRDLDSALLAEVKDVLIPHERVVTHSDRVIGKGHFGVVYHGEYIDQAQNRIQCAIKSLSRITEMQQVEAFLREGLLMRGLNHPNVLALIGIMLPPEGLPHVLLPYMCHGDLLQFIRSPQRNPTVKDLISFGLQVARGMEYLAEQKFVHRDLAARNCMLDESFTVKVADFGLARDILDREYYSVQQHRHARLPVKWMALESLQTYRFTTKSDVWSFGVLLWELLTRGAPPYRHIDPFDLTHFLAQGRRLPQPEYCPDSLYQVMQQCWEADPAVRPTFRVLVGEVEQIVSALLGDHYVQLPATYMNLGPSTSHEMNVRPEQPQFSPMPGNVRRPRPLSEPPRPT
- protocol.summary: sfRON cell mechanistic assay (HeLa), phosphorylated RON ELISA
- condition.context: HeLa cells transfected with sfRON; inhibition of phosphorylated RON; four hours incubation; at least duplicate experiments; read-out: sfRON mech IC50
experimental.readout: IC50

Check out these entries, answers already filled in.
- Cc1c(-c2cnc3[nH]cc([C@H](C)c4c(OC(F)F)ccc(F)c4Cl)c3c2)cnn1[C@H]1CC[C@@H](N(C)CC(=O)O)CC1: > 1 µM
- COc1ccc(F)c(Cl)c1[C@@H](C)c1c[nH]c2ncc(-c3cn(C[C@@H](O)CO)nc3C(F)(F)F)cc12: > 1 µM
- CCc1nn([C@H]2CC[C@H](O)CC2)cc1-c1cnc2[nH]cc([C@H](C)c3c(OC)ccc(F)c3Cl)c2c1: 0.2 to 1 µM
- COc1ccc(F)c(Cl)c1[C@@H](C)c1c[nH]c2ncc(-c3cnn([C@H]4CC[C@@H](N5CCN(C(C)=O)CC5)CC4)c3C)cc12: > 1 µM

Asked: Kindly indicate its recorded IC50. Item: `C[C@H](c1c(OC(F)F)ccc(F)c1Cl)c1c[nH]c2ncc(-c3cnn([C@H]4CC[C@H](O)CC4)c3Cl)cc12`
Given back: 0.2 to 1 µM

Asked: Quickly give me recorded IC50 for Cc1c(-c2cnc3[nH]cc(C(C)c4c(Cl)ccc(F)c4O)c3c2)cnn1[C@H]1CC[C@H](O)CC1 (stereo partly drawn)
Given back: > 1 µM
